- MEASUREMENT NOTES: thallium flux activation in parental CHO cells, counter-screen for KCNQ1 potentiator project (AID 493006);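 for activation: fluorescence ratio of max minus min over baseline after K+ and Tl+ depolarization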
- MEASUREMENT CONDITIONS: parental CHO-K1 cells, FluxOR thallium flux, at 10 µM; hits give high values
The source made the active and inactive calls.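 Rule for the calls: active = duplicate-averaged activation above buffer control mean plus 5 SD of those controls; inactive = the rest.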
EXPERIMENTAL READOUT: activation

[[record]]
molecule = "CCCCN(CCCC)C(=S)N/N=C/c1c(C)[nH]n(-c2ccccc2)c1=O"
experimental_readout = "activation"
measured = "198% (active)"

[[record]]
molecule = "Cc1cccc(C(=O)NN2C(=O)C3C(c4ccccc4)C=CC(c4ccccc4)C3C2=O)c1 (stereo unspecified)"
experimental_readout = "activation"
measured = "inactive"

[[record]]
molecule = "COc1ccccc1C(=O)NNC(=O)C(=O)Nc1cccc(Cl)c1C"
experimental_readout = "activation"
measured = "612% (active)"

[[record]]
molecule = "Cc1cc(NC(=O)CSc2cn(CCNC(=O)c3ccc(F)cc3)c3ccccc23)no1"
experimental_readout = "activation"
measured = "inactive"

[[record]]
molecule = "Fc1ccc2nc(Nc3nc4c(F)cc(F)cc4s3)sc2c1"
experimental_readout = "activation"
measured = "165% (active)"

[[record]]
molecule = "Cc1ccc(C)c2sc(NC(=O)c3nc4ccccc4s3)nc12"
experimental_readout = "activation"
measured = "inactive"

[[record]]
molecule = "N#C/C(=C\\c1ccc(-c2ccccc2Cl)o1)C(=O)Nc1nc2ccccc2s1"
experimental_readout = "activation"
measured = "inactive"

[[record]]
molecule = "OCCN1CCN(C2CCC(c3ccc(F)cc3)c3ccc(F)cc32)CC1 (stereo unspecified)"
experimental_readout = "activation"
measured = "inactive"

[[record]]
molecule = "CC1(C)Cc2c(sc3[nH]c(=S)n(Cc4ccccc4)c(=O)c23)CO1"
experimental_readout = "activation"
measured = "191% (active)"

[[record]]
molecule = "COc1ccc(C2c3ccc4ccccc4c3Oc3ncn(CCN4CCOCC4)c(=N)c32)cc1 (stereo unspecified)"
experimental_readout = "activation"
measured = "inactive"

[[record]]
molecule = "CC1(C)Cc2c(sc(/N=C/N3CCCCCC3)c2C#N)C(C)(C)N1"
experimental_readout = "activation"
measured = "inactive"

[[record]]
molecule = "CCOC(=O)C(=NCC1CCCO1)NNc1ccccc1Cl (stereo unspecified)"
experimental_readout = "activation"
measured = "inactive"

[[record]]
molecule = "Cc1ccsc1/C=N\\NC(=O)c1n[nH]c2c1CCC2"
experimental_readout = "activation"
measured = "inactive"

[[record]]
molecule = "O=C(COc1ccc2ccccc2c1)NNC(=O)[C@@H]1CCCC[C@@H]1C(=O)O"
experimental_readout = "activation"
measured = "inactive"

[[record]]
molecule = "CCOC(=O)c1c(NS(C)(=O)=O)sc2c1CCC(C)C2 (stereo unspecified)"
experimental_readout = "activation"
measured = "173% (active)"

[[record]]
molecule = "O=C(Nc1nnc(-c2ccccc2)o1)c1cc(Cl)sc1Cl"
experimental_readout = "activation"
measured = "inactive"

[[record]]
molecule = "Cc1nc(-c2ccc(NC(=O)Cc3ccccc3)cc2)cs1"
experimental_readout = "activation"
measured = "inactive"

[[record]]
molecule = "Cc1ccc(S(=O)(=O)n2cccc2CO)cc1"
experimental_readout = "activation"
measured = "inactive"

[[record]]
molecule = "COc1ccc(C(=O)O/N=C(\\N)c2ccccc2Cl)cc1OC"
experimental_readout = "activation"
measured = "inactive"

[[record]]
molecule = "O=C(Nc1nc2c(Br)cc(Br)cc2c(=O)s1)C1CCC1"
experimental_readout = "activation"
measured = "192% (active)"

[[record]]
molecule = "O=C1c2cccc3cccc(c23)C(=O)N1c1cccc(O)c1"
experimental_readout = "activation"
measured = "inactive"

[[record]]
molecule = "CC(C)CC(=O)NC(=S)Nc1nc(-c2cccc3ccccc23)cs1"
experimental_readout = "activation"
measured = "inactive"

[[record]]
molecule = "O=C(CSc1nc2ccccc2s1)c1cc2ccccc2o1"
experimental_readout = "activation"
measured = "inactive"

[[record]]
molecule = "Oc1c(Cl)cc(Cl)c2cccnc12"
experimental_readout = "activation"
measured = "148% (active)"

[[record]]
molecule = "Cc1cc(C)cc(OCC(O)Cn2nc(C)cc2C)c1 (stereo unspecified)"
experimental_readout = "activation"
measured = "inactive"

[[record]]
molecule = "CN(C)c1cccc(C(=O)N2CCCC(C(=O)c3cc(F)ccc3F)C2)c1 (stereo unspecified)"
experimental_readout = "activation"
measured = "inactive"

[[record]]
molecule = "CC(=O)c1cccc(OCc2cc(C(=O)N(C)C(C)c3ccccn3)no2)c1 (stereo unspecified)"
experimental_readout = "activation"
measured = "inactive"

[[record]]
molecule = "C/C(=N\\NC(=O)C(=O)Nc1cccc(C(F)(F)F)c1)c1ccc(Cl)s1"
experimental_readout = "activation"
measured = "inactive"

[[record]]
molecule = "N#Cc1ccc(-c2nc3ccc(Br)cc3c(=O)n2O)cc1"
experimental_readout = "activation"
measured = "300% (active)"

[[record]]
molecule = "C=CCn1c(SCC(N)=O)nc2scc(-c3ccc(C)o3)c2c1=O"
experimental_readout = "activation"
measured = "223% (active)"

[[record]]
molecule = "CN1C=CC=C/C1=C1\\SC(=S)N(C2CCCCC2)C1=O"
experimental_readout = "activation"
measured = "inactive"

[[record]]
molecule = "COc1ccccc1-c1cc(C(=O)Nc2cccnc2)no1"
experimental_readout = "activation"
measured = "314% (active)"

[[record]]
molecule = "O=C(NNc1ncc(C(F)(F)F)cc1Cl)c1c(Cl)cccc1Cl"
experimental_readout = "activation"
measured = "inactive"

[[record]]
molecule = "Cc1c(CCC(=O)N2CCC[C@H]2C(=O)O)c(=O)oc2c(C)c3oc4c(c3cc12)CCCC4"
experimental_readout = "activation"
measured = "inactive"

[[record]]
molecule = "COC(=O)c1cccc(NC(=O)CSc2nncn2-c2ccccn2)c1"
experimental_readout = "activation"
measured = "inactive"

[[record]]
molecule = "CCCOc1ccc(CN(CCC#N)C(=S)NC(=O)c2ccccc2)cc1"
experimental_readout = "activation"
measured = "288% (active)"

[[record]]
molecule = "Cc1c(N=Cc2cc(Br)cc(Br)c2O)cccc1C(=O)O"
experimental_readout = "activation"
measured = "inactive"

[[record]]
molecule = "CC(=O)c1ccc(NC(=S)NC(=O)c2c(Cl)c(C)nn2C)cc1"
experimental_readout = "activation"
measured = "inactive"

[[record]]
molecule = "CC1=NOC(=O)/C1=C\\c1ccc(-c2ccc(Br)cc2)o1"
experimental_readout = "activation"
measured = "inactive"

[[record]]
molecule = "S=c1[nH]c(-c2ccccc2)cn1/N=C/c1cccc2ccccc12"
experimental_readout = "activation"
measured = "174% (active)"

[[record]]
molecule = "Cc1ccc(C)c(NC(=S)N(Cc2ccco2)C(C)c2cccs2)c1 (stereo unspecified)"
experimental_readout = "activation"
measured = "inactive"

[[record]]
molecule = "CCN(C(=O)COC(=O)C(Cc1ccccc1)N1C(=O)c2ccccc2C1=O)C1CCS(=O)(=O)C1 (stereo unspecified)"
experimental_readout = "activation"
measured = "inactive"

[[record]]
molecule = "COc1cccc(NC(=S)NC(=O)c2c(Cl)c(C)nn2C)c1"
experimental_readout = "activation"
measured = "inactive"

[[record]]
molecule = "COc1ccccc1OCCCc1c(C)n[nH]c1C"
experimental_readout = "activation"
measured = "inactive"

[[record]]
molecule = "O=C(NC(=S)Nc1cc(C(F)(F)F)ccc1Cl)c1ccccc1"
experimental_readout = "activation"
measured = "inactive"

[[record]]
molecule = "C=CCN(CC=C)C(=S)NC(=O)c1ccc([N+](=O)[O-])cc1"
experimental_readout = "activation"
measured = "366% (active)"

